Source: patent US9999619B2

# Assayed system: human JAK1 (a.a. 837-1142)
# Assay info: In vitro JAK kinase assay (HTRF, phosphorylation of a biotinylated peptide), JAK1
# Format: biochemical
# Assay context: ratio of JAK2 IC50 to JAK1 IC50, measured at 1 mM ATP
Measurement kind: IC50 Ratio JAK2/JAK1

- N#CCC1(n2cc(-c3ccnc4[nH]ccc34)cn2)CN(C2CCN(C(=O)Nc3ccc(C#N)cc3C(F)(F)F)CC2)C1 [Example 311]: 11.1
- N#CCC1(n2cc(-c3ncnc4[nH]ccc34)cn2)CN(C2CCN(C(=O)c3ccc(F)c(O)c3)CC2)C1 [Example 58]: 5.0

I: N#CCC1(n2cc(-c3ncnc4[nH]ccc34)cn2)CN(C2CCN(C(=O)c3ccc(C(F)(F)F)cc3F)CC2)C1 [Example 82]
II: N#CCC1(n2cc(-c3ncnc4[nH]ccc34)cn2)CN(C2CCN(C(=O)c3ccc(-c4ccc5ncccc5c4)c(F)c3)CC2)C1 [Example 2]
Field: entry with larger IC50 Ratio JAK2/JAK1 (options I / II ). # answer = label of selected item
II

====

# Assayed system: human JAK1 (a.a. 837-1142)
# Assay info: In vitro JAK kinase assay (HTRF, phosphorylation of a biotinylated peptide), JAK1
# Assay type: biochemical
# Assay context: ratio of JAK2 IC50 to JAK1 IC50, measured at 1 mM ATP
Measurement kind: IC50 Ratio JAK2/JAK1

P: COc1ccccc1NC(=O)N1CCC(N2CC(CC#N)(n3ccc(-c4ncnc5[nH]ccc45)c3)C2)CC1 [Example 288]
Q: N#CCC1(n2cc(-c3ncnc4[nH]ccc34)cn2)CN(C2CCN(C(=O)c3ccc(C(F)(F)F)c(F)c3)CC2)C1 [Example 52]
R: CCNCc1cc(C(=O)N2CCC(N3CC(CC#N)(n4cc(-c5ncnc6[nH]ccc56)cn4)C3)CC2)nc(C(F)(F)F)n1 [Example 383]
S: N#CCC1(n2cc(-c3ncnc4[nH]ccc34)cn2)CN(C2CCN(C(=O)Cc3ccccc3)CC2)C1 [Example 109]
Order these by IC50 Ratio JAK2/JAK1, descending, and give the full ranking. Would you mind listing the labels in the order requested?
R, P, Q, S
(R: 30.5, P: 9.0, Q: 4.4, S: 1.1)

P: N#CCC1(n2cc(-c3ncnc4[nH]ccc34)cn2)CN(C2CCN(C(=O)C3CCCC3)CC2)C1 [Example 101]
Q: N#CCC1(n2cc(-c3ncnc4[nH]ccc34)cn2)CN(C2CCN(S(=O)(=O)C3CCCC3)CC2)C1 [Example 253]
R: COc1ncccc1NC(=O)N1CCC(N2CC(CC#N)(n3cc(-c4ncnc5[nH]ccc45)cn3)C2)CC1 [Example 204]
// sort entries: IC50 Ratio JAK2/JAK1, high to low Would you mind listing the labels in the order requested?
P, Q, R

1: COc1c(C(=O)N2CCC(N3CC(CC#N)(n4cc(-c5ncnc6[nH]ccc56)cn4)C3)CC2)csc1Cl [Example 74]
2: N#CCC1(n2cc(-c3ncnc4[nH]ccc34)cn2)CN(C2CCN(C(=O)c3cc(C(F)(F)F)ncc3F)CC2)C1 [Example 343]
Field: entry with larger IC50 Ratio JAK2/JAK1 (options 1 / 2 ). # answer = label of selected item
2

I: N#CCC1(n2cc(-c3ncnc4[nH]ccc34)cn2)CN(C2CCN(C(=O)Nc3ccc(Cl)cc3F)CC2)C1 [Example 178]
II: Cc1cc(C)c(CC(=O)N2CCC(N3CC(CC#N)(n4cc(-c5ncnc6[nH]ccc56)cn4)C3)CC2)c(C)c1 [Example 113]
Field: entry with larger IC50 Ratio JAK2/JAK1 (options I / II ). # answer = label of selected item
I

====

# Assayed system: human JAK1 (a.a. 837-1142) (Homo sapiens, UniProt P23458)
pIC50: −log10 of the molar value.
Measurement kind: pIC50

- Cc1nc(F)ccc1NC(=O)N1CCC(N2CC(CC#N)(n3cc(-c4ncnc5[nH]ccc45)cn3)C2)CC1: ≥ 8.30
- N#CCC1(n2cc(-c3c(F)cnc4[nH]ccc34)cn2)CN(C2CCN(C(=O)C3CCC(F)(F)CC3)CC2)C1: 7.70 to 8.30
- N#CCC1(n2cc(-c3c(F)cnc4[nH]ccc34)cn2)CN(C2CCN(C(=O)Nc3ncccc3C(F)(F)F)CC2)C1: 7.70 to 8.30
- N#CCC1(n2cc(-c3ncnc4[nH]ccc34)cn2)CN(C2CCN(C(=O)c3cc(Cl)sc3Cl)CC2)C1: ≥ 8.30
- N#CCC1(n2cc(-c3ncnc4[nH]ccc34)cn2)CN(C2CCN(C(=O)Nc3ccc(F)cc3F)CC2)C1: ≥ 8.30
- Cc1noc(C)c1S(=O)(=O)N1CCC(N2CC(CC#N)(n3cc(-c4ncnc5[nH]ccc45)cn3)C2)CC1: ≥ 8.30

Query the reported pIC50 for human JAK1 (a.a. 837-1142) (Homo sapiens, UniProt P23458); item: N#CCC1(n2ccc(-c3ncnc4[nH]ccc34)c2)CN(C2CCN(C(=O)c3cc(OC(F)(F)F)ccc3F)CC2)C1
≥ 8.30

Query the reported pIC50 for human JAK1 (a.a. 837-1142) (Homo sapiens, UniProt P23458); item: N#CCC1(n2cc(-c3ncnc4[nH]ccc34)cn2)CN(C2CCN(C(=O)c3ccc(O)c(Cl)c3)CC2)C1
≥ 8.30

Query the reported pIC50 for human JAK1 (a.a. 837-1142) (Homo sapiens, UniProt P23458); item: N#CCC1(n2cc(-c3ncnc4[nH]ccc34)cn2)CN(C2CC3CCC(C2)N3Cc2c(F)ccc(F)c2Cl)C1 (centres unmarked)
≥ 8.30

Query the reported pIC50 for human JAK1 (a.a. 837-1142) (Homo sapiens, UniProt P23458); item: N#CCC1(n2cc(-c3ncnc4[nH]ccc34)cn2)CN(C2CCN(C(=O)c3sc4cccc(F)c4c3Cl)CC2)C1
≥ 8.30

Query the reported pIC50 for human JAK1 (a.a. 837-1142) (Homo sapiens, UniProt P23458); item: N#CCC1(n2cc(-c3ncnc4[nH]ccc34)cn2)CN(C2CCN(C(=O)Nc3ccc(F)cc3Cl)CC2)C1
≥ 8.30

Query the reported pIC50 for human JAK1 (a.a. 837-1142) (Homo sapiens, UniProt P23458); item: N#CCC1(n2cc(-c3ncnc4[nH]ccc34)cn2)CN(C2CCN(S(=O)(=O)c3ccc(C#N)cc3)CC2)C1
7.70 to 8.30

Query the reported pIC50 for human JAK1 (a.a. 837-1142) (Homo sapiens, UniProt P23458); item: N#CCC1(n2cc(-c3ncnc4[nH]ccc34)cn2)CN(C2CCN(C(=O)C3CCC(C(F)(F)F)CC3)CC2)C1 (centres unmarked)
7.70 to 8.30

Query the reported pIC50 for human JAK1 (a.a. 837-1142) (Homo sapiens, UniProt P23458); item: N#CCC1(n2cc(-c3ncnc4[nH]ccc34)cn2)CN(C2CCN(C(=O)c3c(F)cc(F)cc3F)CC2)C1
≥ 8.30

====

As an illustration, consider measured pIC50 for compounds on human JAK1 (a.a. 837-1142) (Homo sapiens, UniProt P23458).
pIC50: −log10 of the molar value. Structures can show the parent of a compound that is named as a salt.

Before answering, review these 5 worked examples.
* N#CCC1(n2cc(-c3c(F)cnc4[nH]ccc34)cn2)CN(C2CCN(C(=O)Nc3ccncc3C(F)(F)F)CC2)C1 [Example 331] | ≥ 8.30
* COc1cccc(F)c1CN1CCC(N2CC(CC#N)(n3cc(-c4ncnc5[nH]ccc45)cn3)C2)CC1 [Example 218] | 7.52 to 7.70
* N#CCC1(n2cc(-c3ncnc4[nH]ccc34)cn2)CN(C2CCN(C(=O)c3cc(F)cc(F)c3)CC2)C1 [Example 3] | ≥ 8.30
* Cc1cccc(Cl)c1NC(=O)N1CCC(N2CC(CC#N)(n3cc(-c4ncnc5[nH]ccc45)cn3)C2)CC1 [Example 161] | ≥ 8.30
* Cc1ccccc1NC(=O)N1CCC(N2CC(CC#N)(n3cc(-c4ncnc5[nH]ccc45)cn3)C2)CC1 [Example 185] | ≥ 8.30

Query the reported pIC50 for human JAK1 (a.a. 837-1142) (Homo sapiens, UniProt P23458); item: N#CCC1(n2ccc(-c3ncnc4[nH]ccc34)c2)CN(C2CCN(C(=O)c3cc(F)ccc3F)CC2)C1 [Example 278]
≥ 8.30

Query the reported pIC50 for human JAK1 (a.a. 837-1142) (Homo sapiens, UniProt P23458); item: N#CCC1(n2cc(-c3ncnc4[nH]ccc34)cn2)CN(C2CC3CCC(C2)N3C(=O)c2ccc(Cl)c(F)c2)C1 (stereo not shown) [Example 141]
≥ 8.30

Query the reported pIC50 for human JAK1 (a.a. 837-1142) (Homo sapiens, UniProt P23458); item: N#CCC1(n2cc(-c3c(C#N)cnc4[nH]ccc34)cn2)CN(C2CCN(C(=O)c3cc(Br)ccc3Br)CC2)C1 [Example 335]
≥ 8.30

Query the reported pIC50 for human JAK1 (a.a. 837-1142) (Homo sapiens, UniProt P23458); item: N#CCC1(n2cc(-c3ncnc4[nH]ccc34)cn2)CN(C2CCN(C(=O)c3cc(CN4CCC(F)(F)C4)nc(C(F)(F)F)n3)CC2)C1 [Example 379, TFA]
≥ 8.30

Query the reported pIC50 for human JAK1 (a.a. 837-1142) (Homo sapiens, UniProt P23458); item: N#CCC1(n2cc(-c3ncnc4[nH]ccc34)cn2)CN(C2CCN(C(=O)Cc3ccccc3)CC2)C1 [Example 109]
7.52 to 7.70

Query the reported pIC50 for human JAK1 (a.a. 837-1142) (Homo sapiens, UniProt P23458); item: N#CCC1(n2cc(-c3ncnc4[nH]ccc34)cn2)CN(C2CCN(C(=O)Nc3ncccc3F)CC2)C1 [Example 202]
≥ 8.30

Query the reported pIC50 for human JAK1 (a.a. 837-1142) (Homo sapiens, UniProt P23458); item: N#CCC1(n2cc(-c3ncnc4[nH]ccc34)cn2)CN(C2CCN(Cc3c(Cl)cncc3Cl)CC2)C1 [Example 237]
7.70 to 8.30

Query the reported pIC50 for human JAK1 (a.a. 837-1142) (Homo sapiens, UniProt P23458); item: N#CCC1(n2ccc(-c3ncnc4[nH]ccc34)c2)CN(C2CCN(C(=O)c3ccc(F)c(C(F)(F)F)c3)CC2)C1 [Example 275]
7.70 to 8.30

Query the reported pIC50 for human JAK1 (a.a. 837-1142) (Homo sapiens, UniProt P23458); item: COc1ncccc1NC(=O)N1CCC(N2CC(CC#N)(n3cc(-c4ncnc5[nH]ccc45)cn3)C2)CC1 [Example 204]
≥ 8.30

Query the reported pIC50 for human JAK1 (a.a. 837-1142) (Homo sapiens, UniProt P23458); item: CN(CCCO)Cc1cc(C(=O)N2CCC(N3CC(CC#N)(n4cc(-c5ncnc6[nH]ccc56)cn4)C3)CC2)nc(C(F)(F)F)n1 [Example 385]
≥ 8.30

Query the reported pIC50 for human JAK1 (a.a. 837-1142) (Homo sapiens, UniProt P23458); item: N#CCC1(n2cc(-c3ccnc4[nH]ccc34)cn2)CN(C2CCN(C(=O)c3ccc(C#N)cc3F)CC2)C1 [Example 295]
7.70 to 8.30

Query the reported pIC50 for human JAK1 (a.a. 837-1142) (Homo sapiens, UniProt P23458); item: N#CCC1(n2cc(-c3ncnc4[nH]ccc34)cn2)CN(C2CCN(Cc3cc(F)cc(F)c3)CC2)C1 [Example 215]
≥ 8.30

Query the reported pIC50 for human JAK1 (a.a. 837-1142) (Homo sapiens, UniProt P23458); item: N#CCC1(n2cc(-c3c(C#N)cnc4[nH]ccc34)cn2)CN(C2CCN(C(=O)c3cc(C#N)ccc3C#N)CC2)C1 [Example 337]
7.70 to 8.30

Query the reported pIC50 for human JAK1 (a.a. 837-1142) (Homo sapiens, UniProt P23458); item: N#CCC1(n2cc(-c3ncnc4[nH]ccc34)cn2)CN(C2CCN(C(=O)c3ccc(F)c(F)c3)CC2)C1 [Example 35]
≥ 8.30

Query the reported pIC50 for human JAK1 (a.a. 837-1142) (Homo sapiens, UniProt P23458); item: N#CCC1(n2cc(-c3ncnc4[nH]ccc34)cn2)CN(C2CCN(C(=O)c3ccc(C(F)(F)F)c(F)c3)CC2)C1 [Example 52]
7.70 to 8.30

Query the reported pIC50 for human JAK1 (a.a. 837-1142) (Homo sapiens, UniProt P23458); item: N#CCC1(n2cc(-c3ncnc4[nH]ccc34)cn2)CN(C2CCN(C(=O)c3cccc(F)c3F)CC2)C1 [Example 41]
≥ 8.30

Query the reported pIC50 for human JAK1 (a.a. 837-1142) (Homo sapiens, UniProt P23458); item: COc1ccc(F)c(C(=O)N2CCC(N3CC(CC#N)(n4cc(-c5ncnc6[nH]ccc56)cn4)C3)CC2)c1 [Example 27]
7.70 to 8.30

Query the reported pIC50 for human JAK1 (a.a. 837-1142) (Homo sapiens, UniProt P23458); item: N#CCC1(n2cc(-c3ccnc4[nH]ccc34)cn2)CN(C2CCN(C(=O)c3cc(C(F)(F)F)ncc3Cl)CC2)C1 [Example 298]
7.52 to 7.70

Query the reported pIC50 for human JAK1 (a.a. 837-1142) (Homo sapiens, UniProt P23458); item: N#CCC1(n2ccc(-c3ncnc4[nH]ccc34)c2)CN(C2CCN(C(=O)c3cc(C(F)(F)F)ccc3F)CC2)C1 [Example 273]
≥ 8.30

Query the reported pIC50 for human JAK1 (a.a. 837-1142) (Homo sapiens, UniProt P23458); item: Cc1nc(S(=O)(=O)N2CCC(N3CC(CC#N)(n4cc(-c5ncnc6[nH]ccc56)cn4)C3)CC2)cn1C [Example 259]
≥ 8.30

Query the reported pIC50 for human JAK1 (a.a. 837-1142) (Homo sapiens, UniProt P23458); item: N#CCC1(n2cc(-c3ncnc4[nH]ccc34)cn2)CN(C2CCN(Cc3ccnc(Br)c3)CC2)C1 [Example 226]
7.70 to 8.30

Query the reported pIC50 for human JAK1 (a.a. 837-1142) (Homo sapiens, UniProt P23458); item: N#CCC1(n2cc(-c3ncnc4[nH]ccc34)cn2)CN(C2CCN(C(=O)Nc3cc(F)cc(F)c3F)CC2)C1 [Example 173]
7.70 to 8.30

Query the reported pIC50 for human JAK1 (a.a. 837-1142) (Homo sapiens, UniProt P23458); item: N#CCC1(n2cc(-c3ncnc4[nH]ccc34)cn2)CN(C2CC3CCC(C2)N3C(=O)c2ccnc(C(F)(F)F)c2F)C1 (stereo not shown) [Example 142]
≥ 8.30
